system: S. aureus 8325-4; test: microbe, parasite or virus in culture; format: cell-based; details: Staphylococcus aureus, 83254, Erythrocyte, in Ovis aries, read-out: IC50 (antihemolytic)
pIC50: −log10 of the molar value.
Catalogue of pIC50 readings, one per entry.

>  <molecule>
O=C(OCC1OC(OC(=O)c2cc(O)c(O)c(O)c2)C(OC(=O)c2cc(O)c(O)c(O)c2)C(OC(=O)c2cc(O)c(O)c(O)c2)C1OC(=O)c1cc(O)c(O)c(O)c1)c1cc(O)c(O)c(O)c1 (stereo not shown)

>  <pIC50>
4.65

$$$$
>  <molecule>
O=C(OC1C(O)C(CO)OC2OC(=O)c3cc(Oc4c(C(=O)O)cc(O)c(O)c4O)c(O)c(O)c3-c3c(cc(O)c(O)c3O)C(=O)OC21)c1cc(O)c(O)c(O)c1 (stereo not shown)

>  <pIC50>
4.28

$$$$
>  <molecule>
O=C(OC1OC2COC(=O)c3cc(Oc4c(C(=O)O)cc(O)c(O)c4O)c(O)c(O)c3-c3c(cc(O)c(O)c3O)C(=O)OC2C(O)C1OC(=O)c1cc(O)c(O)c(O)c1)c1cc(O)c(O)c(O)c1 (stereo not shown)

>  <pIC50>
4.22

$$$$
>  <molecule>
O=C(OCC1OC(OC(=O)c2cc(O)c(O)c(O)c2)C(OC(=O)c2cc(O)c(O)c(O)c2)C(OC(=O)c2cc(O)c(O)c(OC(=O)c3cc(O)c(O)c(O)c3)c2)C1OC(=O)c1cc(O)c(O)c(O)c1)c1cc(O)c(O)c(OC(=O)c2cc(O)c(O)c(O)c2)c1 (stereo not shown)

>  <pIC50>
5.06

$$$$
